The values you see were collected from the Deep4Chem optical property database.

Known absorption maximum of a selection of molecules
experimentNotes: solvent given as SMILES
settings: in ClC(Cl)Cl

{"smilesRepresentation": "CCCCc1cc(-c2cccc(COC)c2)oc1-c1cccc(-c2oc(-c3cccc(COC)c3)cc2CCCC)c1", "absorption maximum / nm": 334}
{"smilesRepresentation": "O=C1C2=C3c4sccc4C=CN3C(=O)C2=C2c3sccc3C=CN12", "absorption maximum / nm": 605}
{"smilesRepresentation": "CCCCCCOc1ccc(N(c2ccc(OCCCCCC)cc2)c2ccc(-c3sc(-c4ccc(N(c5ccc(OCCCCCC)cc5)c5ccc(OCCCCCC)cc5)cc4)c4nc(-c5ccccc5)c(-c5ccccc5)nc34)cc2)cc1", "absorption maximum / nm": 601}
{"smilesRepresentation": "CC[n+]1ccc2ccccc2c1/C=C/c1c([O-])ccc2ccc(=O)oc12", "absorption maximum / nm": 614.58}

====

Known absorption maximum of a selection of compounds
experimentNotes: solvent given as SMILES
settings: in CO
quantity: absorption maximum (nm)

{"compound": "Cc1ccc(C2=C3C=CC(/C=C/c4ccccc4)=[N+]3[B-](F)(F)n3c(/C=C/c4ccccc4)ccc32)cc1", "quantity": "absorption maximum", "observedResult": 626}
{"compound": "CCC1=C(C)C(=O)n2c1cc1[nH]c(C(=O)OC(C)(C)C)c(C)c1c2=O", "quantity": "absorption maximum", "observedResult": 397}
{"compound": "c1ccc(C2CSC(c3c4ccc(=[N+]5CCCCC5)cc-4oc4cc(N5CCCCC5)ccc34)SC2)cc1 (stereo not given)", "quantity": "absorption maximum", "observedResult": 584.58}
{"compound": "O=c1c2ccccc2c2c3c(cccc13)c(-c1ccccc1)c1c3cccc4cccc(c43)c12", "quantity": "absorption maximum", "observedResult": 461}
{"compound": "O=C1/C(=C2\\Sc3ccccc3C2=O)Sc2ccccc21", "quantity": "absorption maximum", "observedResult": 538}

====

Known absorption maximum of a selection of compounds
experimentNotes: solvent given as SMILES
settings: in CCOC(C)=O

{"smilesRepresentation": "OCc1cc2c(cc3ccc4cccc5ccc2c3c45)[nH]1", "absorption maximum / nm": 388}
{"smilesRepresentation": "C#CCNC1=C2C=C(c3cc4n(c3)[B-](F)(F)[N+]3=CC=CC3=C4c3c(C)cc(C)cc3C)C(C)=[N+]2[B-](F)(F)n2c(C)ccc21", "absorption maximum / nm": 568}
{"smilesRepresentation": "CCn1c2sccc2c2c3nsnc3c3c4ccsc4n(CC)c3c21", "absorption maximum / nm": 422}
{"smilesRepresentation": "COc1ccc(C(=O)/C=C2\\C(=O)Nc3ccccc32)c(OC)c1", "absorption maximum / nm": 334}
{"smilesRepresentation": "N#Cc1cc2ccc(O)cc2oc1=O", "absorption maximum / nm": 356}
{"smilesRepresentation": "CCC1=C(C)C2=C(C)c3c(I)c(I)c(I)n3[B-](F)(F)[N+]2=C1C", "absorption maximum / nm": 521}
{"smilesRepresentation": "CCOC(=O)C(C(=O)OCC)C1=[N+]2C(=C(c3ccc(C)cc3)c3ccc(Cl)n3[B-]2(F)F)C=C1", "absorption maximum / nm": 509}
{"smilesRepresentation": "COc1ccc(C#Cc2nc3ccccc3nc2-c2cn(C)c3ccccc23)cc1", "absorption maximum / nm": 405}
{"smilesRepresentation": "c1ccc(-c2cc(-c3ccc(-c4nc(-c5ccccn5)c(-c5ccccn5)[nH]4)cc3)cc(-c3ccccn3)n2)nc1", "absorption maximum / nm": 360}
